Target: CCK-B receptors (CHO-CCK) (Homo sapiens, UniProt P32239)
Construct: expressed in transfected cells; host or cells: CHO (CHO-CCK model cells)
Sequence (P32239 1-447): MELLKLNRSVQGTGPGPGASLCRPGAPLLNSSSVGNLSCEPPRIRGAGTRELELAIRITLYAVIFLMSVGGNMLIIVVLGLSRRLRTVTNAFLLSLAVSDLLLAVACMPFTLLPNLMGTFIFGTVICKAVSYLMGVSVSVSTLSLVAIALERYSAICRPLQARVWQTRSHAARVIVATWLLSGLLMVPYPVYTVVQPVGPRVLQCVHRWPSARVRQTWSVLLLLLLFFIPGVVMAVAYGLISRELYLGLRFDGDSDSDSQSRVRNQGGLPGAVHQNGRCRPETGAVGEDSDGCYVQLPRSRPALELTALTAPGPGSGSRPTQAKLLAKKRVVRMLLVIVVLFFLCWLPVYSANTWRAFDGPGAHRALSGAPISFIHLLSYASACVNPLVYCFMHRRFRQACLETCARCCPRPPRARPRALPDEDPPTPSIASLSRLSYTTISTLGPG
Test: Calcium flux (Fluo-8) agonist test on CHO-CCK model cells
Type: cell-based
Settings: CHO-CCK cells, compound alone; 100% = 20 nM CCK8
Where a SMILES comes first, the peptide text is derived from it.
Measured metric: EC50 (nM)

Compound	Measured metric	Endpoint result
COC(=O)C[C@H](NC(=O)[C@H](CCSC)NC(=O)[C@H](N)Cc1c[nH]c2ccccc12)C(=O)N[C@@H](Cc1cccc(I)c1)C(N)=O [HT-79, D-Trp-Met-Asp(Ome)-Phe(3-I)-NH2]	EC50	2290

P. CSCC[C@H](NC(=O)[C@H](Cc1c[nH]c2ccccc12)NC(C)=O)C(=O)N[C@@H](CC(=O)O)C(=O)N[C@@H](Cc1c[nH]c2ccccc12)C(N)=O [HT-193, Ac-Trp-Met-Asp-Trp-NH2] (Ac-WMDW-NH2)
Q. C[S+]([O-])CC[C@H](NC(=O)[C@H](N)Cc1c[nH]c2ccccc12)C(=O)N[C@@H](CC(=O)O)C(=O)N[C@@H](Cc1cccc(Cl)c1)C(N)=O (stereo partly drawn) [HT-43, D-Trp-Met(O)-Asp-Phe(3-Cl)-NH2]
Query block: I need your help: which of the pair P , Q has higher EC50? State your choice using its label.
Result block: Q
(Q: 3020 nM, P: 0.814 nM)

###

Target: CCK-B receptors (CHO-CCK) (Homo sapiens, UniProt P32239)
Construct: expressed in transfected cells; host or cells: CHO (CHO-CCK model cells)
Assay: Calcium flux (Fluo-8) agonist test on CHO-CCK model cells
Assay type: cell-based
Conditions: CHO-CCK cells, compound alone; 100% = 20 nM CCK8
Protocol: • To detect changes in intracellular calcium ion concentration after the compound acts on model cells containing CCK-B receptors (CHO-CCK). • 1. The compound was formulated to a 10 mM mother liquor with DMSO, and then diluted into a series of 9 concentrations with a 3-fold gradient to form a 1000× stock solution. […] • 1. […] In the process of incubating cells, the compounds to be detected were prepared with HHBS. • 5. […]
Measured metric: EC50 (µM)

Compound	Test system	EC50 [µM]
C[S+]([O-])CC[C@H](NC(=O)[C@H](N)Cc1c[nH]c2ccccc12)C(=O)N[C@@H](CC(=O)O)C(=O)N[C@@H](Cc1cccc(Br)c1)C(N)=O (stereo partly drawn) [HT-46, D-Trp-Met(O)-Asp-Phe(3-Br)-NH2]	CCK-B receptors (CHO-CCK) (Homo sapiens, UniProt P32239)	3.8

I. CSCC[C@H](NC(=O)[C@@H](Cc1cc[nH]c1)NC(C)=O)C(=O)N[C@@H](CC(=O)O)C(=O)N[C@@H](Cc1cccc(Br)c1)C(N)=O [HT-181, Ac-D-His-Met-Asp-Phe(3-Br)-NH2]
II. CSCC[C@H](NC(=O)[C@H](N)Cc1c[nH]c2ccccc12)C(=O)N[C@@H](CC(=O)O)C(=O)N[C@@H](Cc1cccc(Br)c1)C(N)=O [HT-29, D-Trp-Met-Asp-Phe(3-Br)-NH2]
Query block: I need your help: which of the pair I , II has higher EC50? State your choice using its label.
Result block: I
